Where do the numbers come from? From patent US9174953B2.

Molecular target: human mGluR5 receptor (Homo sapiens)
Construct: expressed in transfected cells
Sequence (P41594 21-1212): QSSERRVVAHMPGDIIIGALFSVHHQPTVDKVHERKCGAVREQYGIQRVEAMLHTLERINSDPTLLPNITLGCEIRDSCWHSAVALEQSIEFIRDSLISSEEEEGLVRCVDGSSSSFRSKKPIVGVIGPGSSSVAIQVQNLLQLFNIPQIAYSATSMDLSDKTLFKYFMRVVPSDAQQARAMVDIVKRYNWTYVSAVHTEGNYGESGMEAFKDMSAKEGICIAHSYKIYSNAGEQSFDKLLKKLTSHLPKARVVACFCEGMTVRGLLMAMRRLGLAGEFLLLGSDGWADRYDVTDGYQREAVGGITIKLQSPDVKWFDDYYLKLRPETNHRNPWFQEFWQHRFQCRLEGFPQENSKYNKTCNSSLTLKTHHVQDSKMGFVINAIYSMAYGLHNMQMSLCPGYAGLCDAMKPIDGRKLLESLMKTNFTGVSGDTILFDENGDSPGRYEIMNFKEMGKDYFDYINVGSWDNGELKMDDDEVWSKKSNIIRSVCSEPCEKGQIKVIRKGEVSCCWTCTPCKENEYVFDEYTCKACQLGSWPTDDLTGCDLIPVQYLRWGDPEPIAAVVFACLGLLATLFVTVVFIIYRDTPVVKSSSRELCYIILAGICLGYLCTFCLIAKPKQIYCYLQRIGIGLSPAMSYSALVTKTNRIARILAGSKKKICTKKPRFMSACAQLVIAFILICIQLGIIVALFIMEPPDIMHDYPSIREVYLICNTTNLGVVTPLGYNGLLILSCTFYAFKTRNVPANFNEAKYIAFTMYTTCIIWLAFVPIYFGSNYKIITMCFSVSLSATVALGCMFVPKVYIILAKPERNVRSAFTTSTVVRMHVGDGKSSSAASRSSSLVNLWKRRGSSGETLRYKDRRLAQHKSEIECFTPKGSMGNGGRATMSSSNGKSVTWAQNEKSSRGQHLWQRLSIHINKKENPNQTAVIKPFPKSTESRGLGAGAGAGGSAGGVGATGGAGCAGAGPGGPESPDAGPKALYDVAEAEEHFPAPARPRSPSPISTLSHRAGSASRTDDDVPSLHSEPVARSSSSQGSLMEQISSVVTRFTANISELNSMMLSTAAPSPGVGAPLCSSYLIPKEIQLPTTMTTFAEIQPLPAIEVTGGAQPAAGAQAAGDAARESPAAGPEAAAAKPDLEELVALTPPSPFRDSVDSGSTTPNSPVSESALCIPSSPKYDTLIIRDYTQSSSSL
Assay: intracellular Ca2+ mobilization assay, potentiation of glutamate EC20 response (FDSS)
Format: cell-based
Conditions: HEK293; maximum % effect in concentration-response curve, relative to glutamate ECMax-treated wells; HEK-293 human mGluR5
Description: The compounds provided in the present invention are positive allosteric modulators of mGluR5. These compounds appear to potentiate glutamate responses by binding to an allosteric site other than the glutamate binding site. The response of mGluR5 to a concentration of glutamate is increased when compounds of Formula (I) are present. Compounds of Formula (I) are expected to have their effect substantially at mGluR5 by virtue of their ability to enhance the function of the receptor. […]
assay_readout: Emax (%)

(A) COCCN1CCc2nc(C#Cc3ccccc3)sc2C1=O
(B) O=C1CCCc2nc(C#Cc3cccnc3)sc21
Input line: Of A and B , whose reported Emax is numerically smaller? Refer to your chosen entry by its label in the reply.
Output line: A

* * *

assay_readout: melting point

Below, 8 molecules whose answers are already recorded.
| molecule | melting point |
| --- | --- |
| O=C1NCCCc2nc(-c3ccc(N4CCCCC4)nc3)sc21 [Compound 8] | 260.3 to 264 °C |
| O=C1CCCc2nc(C#Cc3cncc(F)c3)sc21 [Compound 2] | 139.2 to 141.9 °C |
| O=C1c2sc(OCc3ccccn3)nc2CCN1c1ccc(F)cc1F [Compound 24] | 98.1 to 100.1 °C |
| O=C1CCCc2nc(C#Cc3cccnc3)sc21 [Compound 10] | 109.5 to 112 °C |
| COCCN1CCc2nc(C#Cc3ccccc3)sc2C1=O [Compound 11] | 144.5 to 148.2 °C |
| CN1CCOc2cc(-c3nc4c(s3)C(=O)CCC4)ccc21 [Compound 9] | 218.1 to 220.8 °C |
| O=C1CCCc2nc(C#Cc3ccccc3)sc21 [Compound 1] | 117.1 to 119.9 °C |
| O=C1c2sc(NCc3ccccc3)nc2CCN1c1ccc(F)cc1 [Compound 22] | 221.3 °C |

Input line: Given the entry CN1CCc2nc(C#Cc3ccccc3)sc2C1=O [Compound 4] , report its measured melting point.
Output line: 146.1 to 147.2 °C

Input line: Given the entry O=C1c2sc(OCc3cccnc3)nc2CCN1c1ccc(F)cc1F [Compound 23] , report its measured melting point.
Output line: 106 to 110 °C

* * *

# melting point per entry

Below, 2 compounds whose answers are already recorded.
| compound | assay_readout | endpoint_value |
| --- | --- | --- |
| O=C1NCCc2nc(C#Cc3ccccc3)sc21 [Compound 3] | melting point | 232.1 to 235.1 °C |
| O=C1c2sc(C#Cc3ccccc3)nc2CCN1Cc1ccccc1 [Compound 12] | melting point | 141.5 to 152.5 °C |

From here, focus on the item given below.
Input line: Given the entry O=C1c2sc(OCc3ccncc3)nc2CCN1c1ccc(F)cc1 [Compound 21] , report its measured melting point.
Output line: 169.1 to 170.9 °C

* * *

Target: human mGluR5 receptor (Homo sapiens)
Assay: intracellular Ca2+ mobilization assay, potentiation of glutamate EC20 response (FDSS)
Details: human mGluR5 stably expressed in HEK-293 cells; Fluo-4 AM; increase in glutamate EC20 (~0.2 μM) response
assay_readout: EC50 (nM)

Below, 3 compounds whose answers are already recorded.
| compound | unit_abbrev | endpoint_value |
| --- | --- | --- |
| CN1CCOc2cc(-c3nc4c(s3)C(=O)CCC4)ccc21 [Compound 9] | nM | 6310 |
| O=C1NCCCc2nc(-c3ccc(N4CCCCC4)nc3)sc21 [Compound 8] | nM | 5010 |
| O=C1CCCc2nc(CCc3ccccc3)sc21 [Compound 6] | nM | 18600 |

(1) COCCN1CCc2nc(C#Cc3ccccc3)sc2C1=O [Compound 11]
(2) O=C1CCCc2nc(C#Cc3cncc(F)c3)sc21 [Compound 2]
(3) O=C1CCCc2nc(C#Cc3cccnc3)sc21 [Compound 10]
Input line: Given 3 compounds, produce a descending ranking by EC50. List each label, following the requested order.
Output line: 2, 3, 1
